Target: hMC4-R (Homo sapiens (Human))
Sequence (P32245 whole entry): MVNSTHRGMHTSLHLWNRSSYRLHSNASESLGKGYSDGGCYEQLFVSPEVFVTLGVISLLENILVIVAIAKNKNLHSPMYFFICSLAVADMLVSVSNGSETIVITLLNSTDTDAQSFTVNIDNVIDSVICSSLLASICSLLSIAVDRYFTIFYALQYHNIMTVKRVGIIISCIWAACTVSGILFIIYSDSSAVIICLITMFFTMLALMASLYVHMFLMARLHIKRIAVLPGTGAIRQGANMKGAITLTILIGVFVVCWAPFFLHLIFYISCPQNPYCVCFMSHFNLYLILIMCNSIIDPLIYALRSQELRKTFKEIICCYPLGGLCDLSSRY
Experiment: Competitive binding assay using Eu-NDP-α-MSH (TRF), hMC4-R membranes
Conditions: averaged; Eu-NDP-α-MSH (values marked *); read-out: MC4-R Ki
Protocol: Alternatively, a competitive inhibition binding assay was performed employing Eu-NDP-α-MSH (PerkinElmer Life Sciences catalog No. AD0225) with determination by time-resolved fluorometry (TRF) of the lanthanide chelate. […] After incubation for 90 minutes at 37° C., the reaction was stopped by filtration over AcroWell 96-well filter plates (Pall Life Sciences). […] Ki values were determined by curve-fitting with Graph-Pad Prism® software using a one-site fixed-slope competition binding model.
Could you please report measured pKi for the items listed next?
pKi is defined as minus the log10 of a concentration measured in mol/L.

Please list pKi recorded for the compound CC(=O)N[C@@H](CCCNC(=N)N)C(=O)N[C@H]1CC(=O)NCCCC[C@@H](C(N)=O)NC(=O)[C@H](Cc2c[nH]c3ccccc23)NC(=O)[C@H](CCCNC(=N)N)NC(=O)[C@@H](Cc2ccccc2)NC(=O)[C@@H]2C[C@@H](Cc3ccccc3)CN2C1=O [compound 18]
8.52

Please list pKi recorded for the compound CC(=O)N[C@@H](CCCNC(=N)N)C(=O)N[C@H]1CC(=O)NCCCC[C@@H](C(N)=O)NC(=O)[C@H](Cc2c[nH]c3ccccc23)NC(=O)[C@H](CCCNC(=N)N)NC(=O)[C@@H](Cc2ccccc2)NC(=O)[C@@H]2C[C@@H](Cc3cccc(Cl)c3)CN2C1=O [compound 124]
7.72

----------
Could you please report measured Ki for the items listed next?
target: hMC4-R (Homo sapiens (Human)); experiment: Competitive inhibition binding assay using [I125]-NDP-α-MSH, hMC4-R membranes; settings: averaged; [I125]-NDP-α-MSH (values not marked *); read-out: MC4-R Ki
Peptide text beside a SMILES is read from it.
Field: numeric (nM). Do not append units.

Please list Ki recorded for the compound CC(=O)N[C@@H](CCCNC(=N)N)C(=O)N[C@H]1CCC(=O)NCCC[C@@H](C(=O)O)NC(=O)[C@H](Cc2c[nH]c3ccccc23)NC(=O)[C@H](CCCNC(=N)N)NC(=O)[C@@H](Cc2ccccc2)NC(=O)[C@H](Cc2c[nH]cn2)NC1=O [compound 82] (HELM PEPTIDE1{[ac].R.E.H.[dF].R.W.[Orn]}$PEPTIDE1,PEPTIDE1,3:R3-8:R3$$$V2.0)
4

Please list Ki recorded for the compound CC(=O)N[C@@H](CCCNC(=N)N)C(=O)N[C@H]1CCCCNC(=O)C[C@@H](C(N)=O)NC(=O)[C@H](Cc2c[nH]c3ccccc23)NC(=O)[C@H](CCCNC(=N)N)NC(=O)[C@@H](Cc2ccccc2)NC(=O)[C@H](CCC(N)=O)NC1=O [compound 151] (HELM PEPTIDE1{[ac].R.K.Q.[dF].R.W.D.[am]}$PEPTIDE1,PEPTIDE1,3:R3-8:R3$$$V2.0)
4

Please list Ki recorded for the compound CC(=O)N[C@@H](CCCN)C(=O)N[C@H]1CCCNC(=O)CC[C@@H](C(N)=O)NC(=O)[C@H](Cc2c[nH]c3ccccc23)NC(=O)[C@H](CCCNC(=N)N)NC(=O)[C@@H](Cc2ccccc2)NC(=O)[C@H](CC(N)=O)NC1=O [compound 158] (HELM PEPTIDE1{[ac].[Orn].[Orn].N.[dF].R.W.E.[am]}$PEPTIDE1,PEPTIDE1,3:R3-8:R3$$$V2.0)
50

Please list Ki recorded for the compound CC(=O)N[C@@H](CCCNC(=N)N)C(=O)N[C@H]1CCC(=O)NCCC[C@@H](C(N)=O)NC(=O)[C@H](Cc2c[nH]c3ccccc23)NC(=O)[C@H](CCCNC(=N)N)NC(=O)[C@@H](Cc2ccccc2)NC(=O)[C@H](CC[S+](C)[O-])NC1=O (stereo partly drawn)
9

Please list Ki recorded for the compound CC(=O)N[C@@H](CCCNC(=N)N)C(=O)N[C@H]1CC(=O)NCCCC[C@@H](C(N)=O)NC(=O)[C@H](Cc2c[nH]c3ccccc23)NC(=O)[C@H](CCCNC(=N)N)NC(=O)[C@@H](Cc2ccccc2)NC(=O)[C@@H]2C[C@@H](O)CN2C1=O
4

Please list Ki recorded for the compound N=C(N)NCCC[C@H](NC(=O)CC1CCCCC1)C(=O)N[C@H]1CC(=O)NCCCC[C@@H](C(N)=O)NC(=O)[C@H](Cc2c[nH]c3ccccc23)NC(=O)[C@H](CCCNC(=N)N)NC(=O)[C@@H](Cc2ccccc2)NC(=O)[C@H](CCN)NC1=O
1
